- tested.system: T1, His-tagged human CD38 (ACRO Biosystems CD8-H5224) (human, UniProt P28907 43-300)
- T1 construct: bought protein; used for ELISA coating and as SPR analyte; not shown: His tag
- protocol.summary: SPR (second run), His-tagged CD38
# Kd values compiled below

- binder: "40769p1.1.E2 (scFv, V domains shown) VH: EVLLLESGGGLVQPGGSLRLSCAASGFTFSDYWMSWVRQAPGKGLEWVSTISISAGIIYYADSVKGRFTISRDNSKNTLYLQMNSLRAEDTAVYYCAKDNWNDYYGMDVWGQGTTVTVSS VL: QSVLTQPPSASGTPGQRVTMSCSGNNQNIRDNYVYWYQQVPGTAPKLLIYKDDQRPSGVPDRFSGSKSGTSASLAISGLQSEDEADYYCATWDGSLKARVFGGGTKLTVL"
  Kd: "6.99 nM"
- binder: "40769p1.2.B4 (scFv, V domains shown) VH: EVQLLESGGDLVQPGGSLRLSCGASGFTFSDHYMSWVRQAPGKGLEWVADISARGSNTWYADSVKGRFTISRDNSENTLYLQMNSLRAEDTAVYYCAKNWNYNYGMDVWGHGTTVTVSS VL: QSVLTQAPSASGTPGQRVTISCSGSSIQNNYVSWYQQLPGTAPKLLIYRNFERPSGVPDRFSASKSGTSASLAISGLQSEDEADYYCASWDDSLNWVFGGGTKLTVL"
  Kd: "8.02 nM"
- binder: "40617p1.2.H1 (scFv, V domains shown) VH: EVQLLESGGGLVQPGGSLRLSCAASGFTFTNYWMTWVRQAPGKGLEWVSAISSYGGNYMYYADSVKGRFTISRDNSENTLYLQMNSLRAEDTAVYYCAKDWDDGMDVWGQGTTVTVSS VL: EIVMTQSPAVLSVSPGERATLSCRASQTVGSKLAWYQQKPGQAPRLLIYGVSTRAAGIPDRFSGSGSGTDFTLTISSLQSEDFAVYYCQQYYDLPPYSFGGGTKVEIK"
  Kd: "9.71 nM"
- binder: "40769p1.2.F9 (scFv, V domains shown) VH: EVQLLESGGDLVQPGGSLRLSCGASGFTFSDHYMSWVRQAPGKGLEWVADISARGSNTWYADSVKGRFTISRDNSENTLYLQMNSLRAEDTAVYYCAKNWNYNYGMDVWGQGTTVTVSS VL: QSVLTQAPSASGTPGQRVTISCSGSSIQNNYVSWYQQLPGTAPKLLIYRNFERPSGVPDRFSASKSGTSASLAISGLQSGDEADYYCASWDDSLNWVFGGGTKLTVL"
  Kd: "8.85 nM"
